Values compiled from patent US11046672B2.

- Assay Summary: Pharmacokinetic measurements in rats (intravenous and intra-tracheal dosing)
- Type: in vivo
- Particulars: rat, 1.5 h
Tag: MET if measured Lung conc i.t./i.v. Ratio at time (h) is not below 6, NOT MET if it is.

INSERT INTO assay_data (molecule, assigned_category) VALUES
  ('COC(=O)c1cc2c(cc1C)/C(=C(/Nc1ccc(C(=O)NOCCN3CCN(C)CC3)cc1)c1ccccc1)C(=O)N2 [Example 6]', 'MET'),
  ('COC(=O)c1cc2c(cc1C)/C(=C(/Nc1ccc(C(=O)NOCCN3CCN(CCO)CC3)cc1)c1ccccc1)C(=O)N2 [Example 7]', 'NOT MET');

Check this molecule for Lung conc i.t./i.v. Ratio at time (h) at or above 6: COC(=O)c1cc2c(cc1C)/C(=C(/Nc1ccc(C(=O)NOCCN(C)C)c(C)c1)c1ccccc1)C(=O)N2 [Example 5]
MET

Now consider COC(=O)c1ccc2c(c1)NC(=O)/C2=C(\Nc1ccc(C(=O)NOCCN2CCN(C)CC2)cc1)c1ccccc1 [Example 4] and answer again.
NOT MET

Now consider COC(=O)c1ccc2c(c1)NC(=O)/C2=C(\Nc1ccc(S(=O)(=O)NOCCN(C)C)cc1)c1ccccc1 [Example 15] and answer again.
MET

Now consider COC(=O)c1ccc2c(c1)NC(=O)/C2=C(\Nc1ccc(C(=O)NOCCN(C)C)cc1)c1ccccc1 [Example 3] and answer again.
NOT MET
